Tested on: SK-N-AS
Experiment: Cell viability assay (ATPlite)
Assay type: cell-based
Settings: Homo sapiens; SK-N-AS cell line, 72 hours incubation
endpointName: IC50

[ask] Quick check: IC50 of `O=C(c1ccc(Oc2ccccc2)cc1Cl)c1c[nH]c2ncnc(N[C@@H]3CC[C@@H](CO)OC3)c12` ?
[reply] 2810 nM

###

Kindly state Percentage inhibition of kinase enzyme activity for each of the entries shown.
Molecular target: Erk5 (Homo sapiens, UniProt Q13164)
Construct: purchased Carna Biosciences
Sequence (Q13164 whole entry): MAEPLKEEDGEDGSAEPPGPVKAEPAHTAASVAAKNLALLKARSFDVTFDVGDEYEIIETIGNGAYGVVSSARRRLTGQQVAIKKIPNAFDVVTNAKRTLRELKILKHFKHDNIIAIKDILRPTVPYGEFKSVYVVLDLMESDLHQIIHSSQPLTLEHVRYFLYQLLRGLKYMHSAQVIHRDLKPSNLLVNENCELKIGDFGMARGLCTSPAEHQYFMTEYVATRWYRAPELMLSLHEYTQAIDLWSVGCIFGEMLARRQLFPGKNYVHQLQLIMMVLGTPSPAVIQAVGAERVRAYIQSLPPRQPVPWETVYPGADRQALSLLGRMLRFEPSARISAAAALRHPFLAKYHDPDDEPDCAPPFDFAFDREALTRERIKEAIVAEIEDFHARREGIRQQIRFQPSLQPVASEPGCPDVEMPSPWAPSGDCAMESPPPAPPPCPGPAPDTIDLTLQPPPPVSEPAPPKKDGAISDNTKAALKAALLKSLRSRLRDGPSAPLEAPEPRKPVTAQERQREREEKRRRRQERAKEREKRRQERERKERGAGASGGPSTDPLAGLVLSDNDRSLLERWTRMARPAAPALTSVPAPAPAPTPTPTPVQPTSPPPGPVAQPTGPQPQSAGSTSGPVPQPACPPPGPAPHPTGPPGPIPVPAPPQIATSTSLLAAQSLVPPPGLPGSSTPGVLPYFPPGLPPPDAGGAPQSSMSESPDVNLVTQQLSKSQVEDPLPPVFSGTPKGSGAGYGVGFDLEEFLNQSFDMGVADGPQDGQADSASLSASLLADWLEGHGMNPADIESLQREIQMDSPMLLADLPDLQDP
Assay: Kinase panel profiling at 1 µmol/L (mobility shift assay, Carna)
Type: biochemical
Settings: 1 µmol/L of BTK inhibitor
Numbers only, in %.

The examples below pair each entry with its known result.
{"compoundStructure": "CC#CC(=O)N1CCC[C@H]1c1nc(-c2ccc(C(=O)Nc3ccccn3)cc2)c2c(N)nccn12", "studyTarget": "Erk5 (Homo sapiens, UniProt Q13164)", "resultValue": -2.12}
{"compoundStructure": "C=CC(=O)N1CCC[C@@H](n2nc(-c3ccc(Oc4ccccc4)cc3)c3c(N)ncnc32)C1", "studyTarget": "Erk5 (Homo sapiens, UniProt Q13164)", "resultValue": 3.89}
{"compoundStructure": "O=C(c1ccc(Oc2ccccc2)cc1Cl)c1c[nH]c2ncnc(N[C@@H]3CC[C@@H](CO)OC3)c12", "studyTarget": "Erk5 (Homo sapiens, UniProt Q13164)", "resultValue": 15.76}

// switching to the query compound
[ask] Form field - read-out: Percentage inhibition of kinase enzyme activity; system: Erk5 (Homo sapiens, UniProt Q13164); submitted item: `COc1ccc(F)cc1C(=O)NCc1ccc(-c2nn([C@@H](C)C(F)(F)F)c(N)c2C(N)=O)cc1`
[reply] 0.51

###

Kindly state Percentage inhibition of kinase enzyme activity for each of the entries shown.
Biological target: TYRO3 (Homo sapiens, UniProt Q06418)
Construct: purchased Carna Biosciences
Sequence (Q06418 41-890): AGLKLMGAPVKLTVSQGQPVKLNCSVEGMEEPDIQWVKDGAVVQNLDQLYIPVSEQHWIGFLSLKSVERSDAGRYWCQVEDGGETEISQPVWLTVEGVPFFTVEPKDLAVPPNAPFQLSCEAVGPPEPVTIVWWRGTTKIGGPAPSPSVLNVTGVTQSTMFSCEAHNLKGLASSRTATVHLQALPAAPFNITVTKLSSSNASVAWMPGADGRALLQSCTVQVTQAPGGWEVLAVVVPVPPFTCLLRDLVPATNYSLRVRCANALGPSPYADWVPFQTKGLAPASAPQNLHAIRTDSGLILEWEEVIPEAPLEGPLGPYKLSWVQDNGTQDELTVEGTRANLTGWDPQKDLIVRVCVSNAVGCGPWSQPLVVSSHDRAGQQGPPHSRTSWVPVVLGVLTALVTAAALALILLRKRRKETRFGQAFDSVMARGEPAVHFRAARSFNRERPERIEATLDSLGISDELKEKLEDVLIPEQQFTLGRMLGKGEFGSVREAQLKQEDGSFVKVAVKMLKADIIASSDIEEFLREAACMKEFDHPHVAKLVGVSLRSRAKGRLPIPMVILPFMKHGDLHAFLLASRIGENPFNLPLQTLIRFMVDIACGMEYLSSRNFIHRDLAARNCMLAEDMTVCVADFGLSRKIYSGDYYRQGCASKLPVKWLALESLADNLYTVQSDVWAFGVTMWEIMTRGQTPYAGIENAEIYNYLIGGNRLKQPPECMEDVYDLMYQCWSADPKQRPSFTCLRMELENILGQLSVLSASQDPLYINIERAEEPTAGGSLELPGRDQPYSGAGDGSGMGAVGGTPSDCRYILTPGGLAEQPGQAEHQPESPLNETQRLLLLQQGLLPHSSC
Assay: Kinase panel profiling at 1 µmol/L (mobility shift assay, Carna)
Type: biochemical
Conditions: 1 µmol/L of BTK inhibitor
Give bare numbers, in %.

{"compoundStructure": "COc1ccc(F)cc1C(=O)NCc1ccc(-c2nn([C@@H](C)C(F)(F)F)c(N)c2C(N)=O)cc1", "studyTarget": "TYRO3 (Homo sapiens, UniProt Q06418)", "resultValue": -3.18}
{"compoundStructure": "O=C(c1ccc(Oc2ccccc2)cc1Cl)c1c[nH]c2ncnc(N[C@@H]3CC[C@@H](CO)OC3)c12", "studyTarget": "TYRO3 (Homo sapiens, UniProt Q06418)", "resultValue": 58.33}
{"compoundStructure": "C=CC(=O)N1CCC[C@@H](n2nc(-c3ccc(Oc4ccccc4)cc3)c3c(N)ncnc32)C1", "studyTarget": "TYRO3 (Homo sapiens, UniProt Q06418)", "resultValue": 11.95}

[ask] Quick check: Percentage inhibition of kinase enzyme activity of `CC#CC(=O)N1CCC[C@H]1c1nc(-c2ccc(C(=O)Nc3ccccn3)cc2)c2c(N)nccn12` ?
[reply] 3.11

###

Kindly state Percentage inhibition of kinase enzyme activity for each of the entries shown.
Target: JAK1 (Homo sapiens, UniProt P23458)
Construct: purchased Carna Biosciences
Sequence (P23458 whole entry): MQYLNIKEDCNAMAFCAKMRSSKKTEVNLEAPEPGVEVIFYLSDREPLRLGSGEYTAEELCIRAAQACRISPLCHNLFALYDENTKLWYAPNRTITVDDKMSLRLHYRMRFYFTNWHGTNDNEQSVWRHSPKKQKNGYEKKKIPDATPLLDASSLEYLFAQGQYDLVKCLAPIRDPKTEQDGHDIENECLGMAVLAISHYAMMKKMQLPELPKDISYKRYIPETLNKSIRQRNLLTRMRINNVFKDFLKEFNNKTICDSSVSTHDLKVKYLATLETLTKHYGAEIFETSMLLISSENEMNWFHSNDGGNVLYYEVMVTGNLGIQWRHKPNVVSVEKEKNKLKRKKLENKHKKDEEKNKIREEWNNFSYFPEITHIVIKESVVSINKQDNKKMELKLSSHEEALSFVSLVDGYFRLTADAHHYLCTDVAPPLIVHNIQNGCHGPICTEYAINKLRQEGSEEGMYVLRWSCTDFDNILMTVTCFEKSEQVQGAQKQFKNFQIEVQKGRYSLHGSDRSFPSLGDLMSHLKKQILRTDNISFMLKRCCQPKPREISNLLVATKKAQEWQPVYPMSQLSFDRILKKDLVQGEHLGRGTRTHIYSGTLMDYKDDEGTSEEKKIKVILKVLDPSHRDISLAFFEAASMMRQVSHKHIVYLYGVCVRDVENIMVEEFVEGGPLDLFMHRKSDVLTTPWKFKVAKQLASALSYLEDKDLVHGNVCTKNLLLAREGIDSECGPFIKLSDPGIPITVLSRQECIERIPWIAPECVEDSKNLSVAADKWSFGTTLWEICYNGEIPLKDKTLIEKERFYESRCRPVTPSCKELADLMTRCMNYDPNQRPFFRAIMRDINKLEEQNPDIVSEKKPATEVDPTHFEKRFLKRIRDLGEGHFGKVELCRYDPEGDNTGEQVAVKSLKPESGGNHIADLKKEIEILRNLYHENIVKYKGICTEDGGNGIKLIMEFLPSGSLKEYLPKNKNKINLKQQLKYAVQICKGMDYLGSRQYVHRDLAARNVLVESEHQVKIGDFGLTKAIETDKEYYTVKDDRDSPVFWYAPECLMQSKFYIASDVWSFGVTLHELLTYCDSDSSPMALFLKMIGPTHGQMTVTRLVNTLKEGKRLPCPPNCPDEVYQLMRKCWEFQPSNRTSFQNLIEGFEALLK
Assay: Kinase panel profiling at 1 µmol/L (mobility shift assay, Carna)
Assay type: biochemical
Conditions: 1 µmol/L of BTK inhibitor
Numbers only, in %.

The examples below pair each entry with its known result.
{"compound": "O=C(c1ccc(Oc2ccccc2)cc1Cl)c1c[nH]c2ncnc(N[C@@H]3CC[C@@H](CO)OC3)c12 [nemtabrutinib]", "resultValue": 32.55}
{"compound": "C=CC(=O)N1CCC[C@@H](n2nc(-c3ccc(Oc4ccccc4)cc3)c3c(N)ncnc32)C1 [ibrutinib]", "resultValue": -9.54}

Field: Percentage inhibition of kinase enzyme activity. Fill in for each record below.
1. CC#CC(=O)N1CCC[C@H]1c1nc(-c2ccc(C(=O)Nc3ccccn3)cc2)c2c(N)nccn12 [acalabrutinib]
2. C=CC(=O)N1CCC([C@@H]2CCNc3c(C(N)=O)c(-c4ccc(Oc5ccccc5)cc4)nn32)CC1 [zanubrutinib]
3. COc1ccc(F)cc1C(=O)NCc1ccc(-c2nn([C@@H](C)C(F)(F)F)c(N)c2C(N)=O)cc1 [pirtobrutinib]

[reply]
[-12.91, -0.37, -2.12]

###

Kindly state Percentage inhibition of kinase enzyme activity for each of the entries shown.
Target: INSR (Homo sapiens, UniProt P06213)
Construct: purchased Carna Biosciences
Sequence (P06213 28-1382): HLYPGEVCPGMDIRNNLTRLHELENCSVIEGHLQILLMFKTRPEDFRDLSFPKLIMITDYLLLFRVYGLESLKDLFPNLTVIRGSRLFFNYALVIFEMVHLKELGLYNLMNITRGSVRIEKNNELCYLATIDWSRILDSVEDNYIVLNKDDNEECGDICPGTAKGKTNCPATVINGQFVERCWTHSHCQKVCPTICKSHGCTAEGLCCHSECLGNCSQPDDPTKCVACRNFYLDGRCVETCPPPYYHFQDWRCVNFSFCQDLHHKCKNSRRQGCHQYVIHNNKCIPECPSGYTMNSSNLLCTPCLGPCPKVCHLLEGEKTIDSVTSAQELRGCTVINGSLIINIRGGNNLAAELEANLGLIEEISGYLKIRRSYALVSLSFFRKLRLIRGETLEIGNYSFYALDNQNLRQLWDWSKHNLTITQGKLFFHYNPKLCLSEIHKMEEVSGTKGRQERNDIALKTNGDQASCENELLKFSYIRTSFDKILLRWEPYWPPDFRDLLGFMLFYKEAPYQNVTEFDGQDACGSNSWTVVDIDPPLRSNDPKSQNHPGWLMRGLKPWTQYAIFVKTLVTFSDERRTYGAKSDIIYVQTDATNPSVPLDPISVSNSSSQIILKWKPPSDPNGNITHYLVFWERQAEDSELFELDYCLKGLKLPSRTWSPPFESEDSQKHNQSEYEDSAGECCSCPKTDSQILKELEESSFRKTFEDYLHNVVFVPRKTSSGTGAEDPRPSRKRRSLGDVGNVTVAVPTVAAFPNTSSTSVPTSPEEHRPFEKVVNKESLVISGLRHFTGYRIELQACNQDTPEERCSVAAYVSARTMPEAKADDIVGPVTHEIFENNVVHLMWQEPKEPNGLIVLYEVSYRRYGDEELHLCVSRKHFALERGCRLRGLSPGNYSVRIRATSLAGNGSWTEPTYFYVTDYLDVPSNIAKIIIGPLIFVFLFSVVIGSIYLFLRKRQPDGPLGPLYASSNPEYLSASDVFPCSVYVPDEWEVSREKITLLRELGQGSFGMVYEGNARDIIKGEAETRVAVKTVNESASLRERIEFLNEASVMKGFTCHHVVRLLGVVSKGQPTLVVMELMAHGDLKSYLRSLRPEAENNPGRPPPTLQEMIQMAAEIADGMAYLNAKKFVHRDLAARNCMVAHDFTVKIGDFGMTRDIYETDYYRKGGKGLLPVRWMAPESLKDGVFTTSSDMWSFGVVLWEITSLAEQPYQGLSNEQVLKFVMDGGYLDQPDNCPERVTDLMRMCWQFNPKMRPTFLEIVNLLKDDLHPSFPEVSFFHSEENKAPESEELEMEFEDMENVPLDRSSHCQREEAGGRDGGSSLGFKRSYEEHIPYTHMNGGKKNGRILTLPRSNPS
Assay: Kinase panel profiling at 1 µmol/L (mobility shift assay, Carna)
Assay type: biochemical
Conditions: 1 µmol/L of BTK inhibitor
Give bare numbers, in %.

The examples below pair each entry with its known result.
{"compoundStructure": "C=CC(=O)N1CCC[C@@H](n2nc(-c3ccc(Oc4ccccc4)cc3)c3c(N)ncnc32)C1", "resultValue": 9.51}
{"compoundStructure": "COc1ccc(F)cc1C(=O)NCc1ccc(-c2nn([C@@H](C)C(F)(F)F)c(N)c2C(N)=O)cc1", "resultValue": 6.62}
{"compoundStructure": "C=CC(=O)N1CCC([C@@H]2CCNc3c(C(N)=O)c(-c4ccc(Oc5ccccc5)cc4)nn32)CC1", "resultValue": 2.69}
{"compoundStructure": "O=C(c1ccc(Oc2ccccc2)cc1Cl)c1c[nH]c2ncnc(N[C@@H]3CC[C@@H](CO)OC3)c12", "resultValue": 95.91}

// switching to the query compound
[ask] Quick check: Percentage inhibition of kinase enzyme activity of `CC#CC(=O)N1CCC[C@H]1c1nc(-c2ccc(C(=O)Nc3ccccn3)cc2)c2c(N)nccn12` ?
[reply] -4.67

###

Target: PHKG1 (Homo sapiens, UniProt Q16816)
Construct: purchased Carna Biosciences
Sequence (Q16816 whole entry): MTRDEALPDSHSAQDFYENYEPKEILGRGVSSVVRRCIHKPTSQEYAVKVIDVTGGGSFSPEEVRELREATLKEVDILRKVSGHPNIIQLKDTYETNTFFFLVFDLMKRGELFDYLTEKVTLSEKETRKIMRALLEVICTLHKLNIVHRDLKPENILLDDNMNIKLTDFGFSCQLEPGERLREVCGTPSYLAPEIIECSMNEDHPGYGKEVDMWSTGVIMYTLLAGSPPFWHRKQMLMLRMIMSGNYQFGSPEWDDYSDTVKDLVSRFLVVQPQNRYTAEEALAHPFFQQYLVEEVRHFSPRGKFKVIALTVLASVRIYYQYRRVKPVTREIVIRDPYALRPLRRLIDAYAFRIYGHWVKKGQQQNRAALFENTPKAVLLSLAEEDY
Assay: Kinase panel profiling at 1 µmol/L (mobility shift assay, Carna)
Type: biochemical
Settings: 1 µmol/L of BTK inhibitor
endpointName: Percentage inhibition of kinase enzyme activity (%)
Numbers only, in %.

{"compoundStructure": "COc1ccc(F)cc1C(=O)NCc1ccc(-c2nn([C@@H](C)C(F)(F)F)c(N)c2C(N)=O)cc1", "resultValue": 4.81}

Field: Percentage inhibition of kinase enzyme activity. Fill in for each record below.
1. CC#CC(=O)N1CCC[C@H]1c1nc(-c2ccc(C(=O)Nc3ccccn3)cc2)c2c(N)nccn12
2. O=C(c1ccc(Oc2ccccc2)cc1Cl)c1c[nH]c2ncnc(N[C@@H]3CC[C@@H](CO)OC3)c12
3. C=CC(=O)N1CCC[C@@H](n2nc(-c3ccc(Oc4ccccc4)cc3)c3c(N)ncnc32)C1

[reply]
[-4.16, 7.46, 1.53]

###

Target: MELK (Homo sapiens, UniProt Q14680)
Construct: purchased Carna Biosciences
Sequence (Q14680 whole entry): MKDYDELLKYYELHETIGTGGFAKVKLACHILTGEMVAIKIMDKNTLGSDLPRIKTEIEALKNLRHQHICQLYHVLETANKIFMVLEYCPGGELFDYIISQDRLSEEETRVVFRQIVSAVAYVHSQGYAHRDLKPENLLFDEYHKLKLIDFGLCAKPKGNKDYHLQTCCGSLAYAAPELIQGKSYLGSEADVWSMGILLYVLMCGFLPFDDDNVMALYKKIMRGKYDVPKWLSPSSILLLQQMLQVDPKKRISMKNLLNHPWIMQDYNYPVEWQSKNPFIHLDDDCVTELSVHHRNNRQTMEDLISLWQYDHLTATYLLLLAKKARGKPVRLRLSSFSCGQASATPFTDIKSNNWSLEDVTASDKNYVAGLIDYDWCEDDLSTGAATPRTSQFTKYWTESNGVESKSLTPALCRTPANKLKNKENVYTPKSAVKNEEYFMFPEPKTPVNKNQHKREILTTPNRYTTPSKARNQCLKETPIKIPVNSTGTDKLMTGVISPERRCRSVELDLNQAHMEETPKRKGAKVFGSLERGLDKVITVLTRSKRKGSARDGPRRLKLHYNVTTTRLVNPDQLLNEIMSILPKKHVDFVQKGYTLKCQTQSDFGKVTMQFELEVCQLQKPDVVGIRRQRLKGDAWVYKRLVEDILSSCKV
Assay: Kinase panel profiling at 1 µmol/L (mobility shift assay, Carna)
Format: biochemical
Conditions: 1 µmol/L of BTK inhibitor
endpointName: Percentage inhibition of kinase enzyme activity (%)
Numbers only, in %.

{"compound": "O=C(c1ccc(Oc2ccccc2)cc1Cl)c1c[nH]c2ncnc(N[C@@H]3CC[C@@H](CO)OC3)c12 [nemtabrutinib]", "resultValue": 81.25}
{"compound": "COc1ccc(F)cc1C(=O)NCc1ccc(-c2nn([C@@H](C)C(F)(F)F)c(N)c2C(N)=O)cc1 [pirtobrutinib]", "resultValue": -5.13}
{"compound": "CC#CC(=O)N1CCC[C@H]1c1nc(-c2ccc(C(=O)Nc3ccccn3)cc2)c2c(N)nccn12 [acalabrutinib]", "resultValue": -0.54}

// switching to the query compound
[ask] Quick check: Percentage inhibition of kinase enzyme activity of C=CC(=O)N1CCC[C@@H](n2nc(-c3ccc(Oc4ccccc4)cc3)c3c(N)ncnc32)C1 [ibrutinib] ?
[reply] 8.08
